B1: glmS ribozyme (parent)
chain: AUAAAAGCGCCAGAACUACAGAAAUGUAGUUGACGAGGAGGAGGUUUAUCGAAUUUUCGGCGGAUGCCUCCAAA

variants of: B1; assay: self-cleavage kobs at 640 uM GlcN6P; higher = faster cleavage; RNA array; details: with glucosamine-6-phosphate
Fewer inactive variants are shown than the library holds.
experimentalEndpoint: self-cleavage kobs at 640 uM GlcN6P

Below, each entry is followed by its recorded self-cleavage kobs at 640 uM GlcN6P result.
According to the records, this variant AUAAAAGCGCCAGAACUACAGAAAUGUAGUUGACAAGGAGGAGGUUAAUGGAAGUUUCGGCGGAUGCCUCCAAA [G35A U47A C50G U54G] displays self-cleavage kobs at 640 uM GlcN6P of 0.000171 s⁻¹

According to the records, this variant AUAAAAGCGCCAAAGCUACAGAAAUGUAGUUGACGAGGAGGAGGUUUAUCGAAUUUUCGGCGGAUGCCUCCAAA [G13A A15G] displays self-cleavage kobs at 640 uM GlcN6P of 0.000327 s⁻¹

According to the records, this variant AUAAAAGCGCCAGAACUACAGAAAUGUAGUUGACGAUGAGGAGGUUUAUCGAAUUUUCGCCGGAUGCCUCCAAA [G37U G60C] displays self-cleavage kobs at 640 uM GlcN6P of < 1e-05 s⁻¹

More entries:
According to the records, this variant AUAAAAGCGCCAGAACUACAGAAAUGUAGUUGACGAGGAGGAGGUUAAUCGAAUUUUCGGCGGACGCCUCCAAA [U47A U65C] displays self-cleavage kobs at 640 uM GlcN6P of 0.000158 s⁻¹

According to the records, this variant AUAAAAGCGCCAUAACUACAGAAAUGUAGUUGACGAGGAGCUGGUUUAUCGAAUUUUCGGCGGACGCCUCCAAA [G13U G41C A42U U65C] displays self-cleavage kobs at 640 uM GlcN6P of < 1e-05 s⁻¹

According to the records, this variant AUAAAAGCGCCAGAACUACAGAAAUGUAGUUGACGAGGAGGCGGUUUAUCGAAUUUUCGGCGGAUGCGUCCAAA [A42C C68G] displays self-cleavage kobs at 640 uM GlcN6P of < 1e-05 s⁻¹

According to the records, this variant AUAAAAGCGCCAGAACUACAGAAAUGUAGUCGACGAGGAGGAGGUGUAUCGAAUUUUCGGCGGAUGCCUCCAAA [U31C U46G] displays self-cleavage kobs at 640 uM GlcN6P of 0.000198 s⁻¹

According to the records, this variant AUAAAAGCGCCAGAACUACAGAAAUGUAGUUGACGAGGAGGAGGUGUAUCGAAUUUUCGGGGGAUGCCUCCAAA [U46G C61G] displays self-cleavage kobs at 640 uM GlcN6P of < 1e-05 s⁻¹

According to the records, this variant AUAAAAGCGCCAGAACUACAGAAAUGUAGUUGACGAGGAGGAGGUUUAUGGAAUUUUCGGUGGGUGCCUCCAAA [C50G C61U A64G] displays self-cleavage kobs at 640 uM GlcN6P of 0.000192 s⁻¹

According to the records, this variant AUAAAAGCGCUAGAACUACAGAAAUGUAGUUCACGGGGAGGAGGUUUAUCGAAUUUUCGGCAGAUGCCUCGAAA [C11U G32C A36G G62A C71G] displays self-cleavage kobs at 640 uM GlcN6P of < 1e-05 s⁻¹

According to the records, this variant AUAAAAGCGCCAGAACUACAGAAAUGUAGUUGACGAGGAGCAGGUUUAUCGAUUUUUCGGCGGAUGCCUCCAAA [G41C A53U] displays self-cleavage kobs at 640 uM GlcN6P of 7.44e-05 s⁻¹
